system-tested: UniProtKB Q96T53
assay-overview: Determination of hGOAT Activity in HEK293 Cells after Incubation with Test Compound
details: HEK293 cells stably transfected with preproghrelin and human GOAT; octanoate-BSA 100 μM; acyl-ghrelin in medium by ELISA after 5 hours
measured-endpoint: pIC50
A value of pIC50 is the negative decimal logarithm of a concentration given in moles per litre.

- sample-smiles: "Cc1nc2nonc2c(N)c1Cc1cc(C#N)ccn1"
  system-tested: "UniProtKB Q96T53"
  pIC50: 7.32
- sample-smiles: "Cc1nc2nonc2c(N)c1Cc1ncc(C(F)(F)F)c(N)n1"
  system-tested: "UniProtKB Q96T53"
  pIC50: 9.66
- sample-smiles: "CSc1nc(Cc2c(C)nc3nonc3c2N)ccc1Br"
  system-tested: "UniProtKB Q96T53"
  pIC50: 10.13
- sample-smiles: "Cc1nc2nonc2c(N)c1Cc1ccc(-n2ccc(C(F)(F)F)n2)c(C#N)n1"
  system-tested: "UniProtKB Q96T53"
  pIC50: 8.46
- sample-smiles: "Cc1nc2nonc2c(N)c1Cc1ccc(Br)cn1"
  system-tested: "UniProtKB Q96T53"
  pIC50: 9.62

Look up pIC50 for this compound: Cc1nc2nonc2c(N)c1Cc1ncc(C#N)c(N)n1 8.92

Look up pIC50 for this compound: Cc1nc2nonc2c(N)c1Cc1ccc(C(F)(F)F)cn1 9.21

Look up pIC50 for this compound: Cc1nc2nonc2c(N)c1Cc1ccc(Br)c(S(C)(=O)=O)n1 9.05

Look up pIC50 for this compound: Cc1nc2nonc2c(N)c1Cc1cccc(-c2c[nH]nc2C(F)(F)F)n1 9.68

Look up pIC50 for this compound: Cc1nc2nonc2c(N)c1Cc1ncc(C(F)(F)F)c(C#N)n1 8.57

----------
system-tested: human GOAT (Homo sapiens (Human), UniProt Q96T53)
Sequence (Q96T53 whole entry): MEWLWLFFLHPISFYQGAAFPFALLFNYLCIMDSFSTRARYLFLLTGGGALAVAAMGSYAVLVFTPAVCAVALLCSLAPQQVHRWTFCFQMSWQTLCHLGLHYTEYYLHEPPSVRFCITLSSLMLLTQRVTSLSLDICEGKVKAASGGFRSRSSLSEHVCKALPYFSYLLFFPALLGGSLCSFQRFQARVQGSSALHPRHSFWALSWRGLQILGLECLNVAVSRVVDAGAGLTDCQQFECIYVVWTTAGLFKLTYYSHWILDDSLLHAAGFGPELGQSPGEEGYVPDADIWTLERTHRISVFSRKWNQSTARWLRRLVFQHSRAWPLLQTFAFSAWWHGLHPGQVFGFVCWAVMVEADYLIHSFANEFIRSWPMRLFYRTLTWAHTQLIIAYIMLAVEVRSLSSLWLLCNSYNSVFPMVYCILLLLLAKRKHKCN
assay-overview: Determination of hGOAT Activity in HEK293 Cells after Incubation with Test Compound
details: HEK293 cells stably transfected with preproghrelin and human GOAT; octanoate-BSA 100 μM; acyl-ghrelin in medium by ELISA after 5 hours
measured-endpoint: pIC50
A value of pIC50 is the negative decimal logarithm of a concentration given in moles per litre.

Past entries and their recorded results:
- compound: "Cc1nc2nonc2c(N)c1Cc1ccc(-n2cccn2)c(C#N)n1"
  pIC50: 9.59
- compound: "Cc1nc2nonc2c(N)c1Cc1ccc(C#N)c(N2CCNC(=O)CC2)n1"
  pIC50: 9.85
- compound: "Cc1nc2nonc2c(N)c1Cc1ccc(C#N)c(OCCCF)n1"
  pIC50: 10.59
- compound: "Cc1nc2nonc2c(N)c1Cc1ccc(Cl)cn1"
  pIC50: 9.38
- compound: "Cc1nc2nonc2c(N)c1Cc1cccc(Br)n1"
  pIC50: 9.02
- compound: "Cc1nc2nonc2c(N)c1Cc1ncc(Br)c(C(F)F)n1"
  pIC50: 9.68
- compound: "Cc1nc2nonc2c(N)c1Cc1cc(C(F)(F)F)c(C#N)cn1"
  pIC50: 8.70
- compound: "Cc1nc2nonc2c(N)c1Cc1ccc(Br)c(NCC2(C)COC2)n1"
  pIC50: 10.35

Item Cc1nc2nonc2c(N)c1Cc1ccc(C#N)c(NC2CC2)n1 with human GOAT (Homo sapiens (Human), UniProt Q96T53) - pIC50? 10.70

Item Cc1nc2nonc2c(N)c1Cc1ncc(Br)c(C(F)(F)F)n1 with human GOAT (Homo sapiens (Human), UniProt Q96T53) - pIC50? 10.11

Item Cc1nc2nonc2c(N)c1Cc1ccc(C#N)c(OCC2CC2(F)F)n1 (centres unmarked) with human GOAT (Homo sapiens (Human), UniProt Q96T53) - pIC50? 9.66

----------
system-tested: human GOAT (Homo sapiens (Human), UniProt Q96T53)
assay-overview: Determination of hGOAT Activity in HEK293 Cells after Incubation with Test Compound
details: HEK293 cells stably transfected with preproghrelin and human GOAT; octanoate-BSA 100 μM; acyl-ghrelin in medium by ELISA after 5 hours
measured-endpoint: IC50 (pM)
Entry rule: numbers only, all in pM.

- sample-smiles: "Cc1nc2nonc2c(N)c1Cc1ccc(C#N)c(N2CC3(COC3)C2)n1"
  system-tested: "human GOAT (Homo sapiens (Human), UniProt Q96T53)"
  IC50, pM: 54

Look up IC50 for this molecule: Cc1nc2nonc2c(N)c1Cc1cccc(S(C)(=O)=O)n1 19000

Look up IC50 for this molecule: Cc1nc2nonc2c(N)c1Cc1cccc(Cl)n1 460

----------
system-tested: human GOAT (Homo sapiens (Human), UniProt Q96T53)
assay-overview: Determination of hGOAT Activity in HEK293 Cells after Incubation with Test Compound
details: HEK293 cells stably transfected with preproghrelin and human GOAT; octanoate-BSA 100 μM; acyl-ghrelin in medium by ELISA after 5 hours
Below is a list of entries, each paired with its recorded pIC50 value.
A value of pIC50 is the negative decimal logarithm of a concentration given in moles per litre.

- compound: "Cc1nc2nonc2c(N)c1Cc1ccccn1"
  system-tested: "human GOAT (Homo sapiens (Human), UniProt Q96T53)"
  pIC50: 8.55
- compound: "Cc1nc2nonc2c(N)c1Cc1ccc(OCC(F)F)c(C#N)n1"
  system-tested: "human GOAT (Homo sapiens (Human), UniProt Q96T53)"
  pIC50: 9.08
- compound: "Cc1nc2nonc2c(N)c1Cc1cccc(C(=O)N(C)C)n1"
  system-tested: "human GOAT (Homo sapiens (Human), UniProt Q96T53)"
  pIC50: 8.41
- compound: "Cc1nc2nonc2c(N)c1Cc1ccc(Br)c(OCC(C)(F)F)n1"
  system-tested: "human GOAT (Homo sapiens (Human), UniProt Q96T53)"
  pIC50: 10.14
- compound: "Cc1nc2nonc2c(N)c1Cc1ccc(-c2cnn3c2CCC3)c(N)n1"
  system-tested: "human GOAT (Homo sapiens (Human), UniProt Q96T53)"
  pIC50: 9.54

Look up pIC50 for this compound: Cc1nc2nonc2c(N)c1Cc1ccc([S+](C)[O-])cn1 (stereo not drawn) 8.05

Look up pIC50 for this compound: Cc1nc2nonc2c(N)c1Cc1ncc(Cl)c(C(F)F)n1 9.42

Look up pIC50 for this compound: Cc1nc2nonc2c(N)c1Cc1ccc(C#N)c(OC2COC2)n1 9.01

Look up pIC50 for this compound: Cc1nc2nonc2c(N)c1Cc1ccc(Oc2ccnn2C)c(C#N)n1 9.72

Look up pIC50 for this compound: Cc1nc2nonc2c(N)c1Cc1ccc(C(F)F)cn1 9.36

Look up pIC50 for this compound: Cc1nc2nonc2c(N)c1Cc1ccc(C#N)c(N2CC(C)(O)C2)n1 10.12

Look up pIC50 for this compound: CNC(=O)c1cccc(Cc2c(C)nc3nonc3c2N)n1 9.62

----------
system-tested: human GOAT (Homo sapiens (Human))
assay-overview: Determination of hGOAT Activity in HEK293 Cells after Incubation with Test Compound
details: HEK293 cells stably transfected with preproghrelin and human GOAT; octanoate-BSA 100 μM; acyl-ghrelin in medium by ELISA after 5 hours
pIC50: −log10 of the molar value.
Where pIC50 equals or exceeds 9, the correct label is TRUE; where it does not, the label is FALSE.

- compound: "Cc1nc2nonc2c(N)c1Cc1ccc(C#N)c(NCCC(F)(F)F)n1 [Example 145]"
  system-tested: "human GOAT (Homo sapiens (Human))"
  assigned-label: "TRUE"
- compound: "Cc1cccc(Cc2c(C)nc3nonc3c2N)n1 [Example 53]"
  system-tested: "human GOAT (Homo sapiens (Human))"
  assigned-label: "FALSE"
- compound: "Cc1nc2nonc2c(N)c1Cc1cc(C(F)(F)F)cc(C#N)n1 [Example 36]"
  system-tested: "human GOAT (Homo sapiens (Human))"
  assigned-label: "FALSE"
- compound: "Cc1nc2nonc2c(N)c1Cc1ccc(OC(F)(F)F)c(C#N)n1 [Example 33]"
  system-tested: "human GOAT (Homo sapiens (Human))"
  assigned-label: "TRUE"

Now consider a different compound.
Textbook exercise: given the entry Cc1nc2nonc2c(N)c1Cc1ccc(C2CC2)c(C#N)n1 [Example 42] , state whether its pIC50 is greater than or equal to 9. TRUE

----------
system-tested: UniProtKB Q96T53
assay-overview: Determination of hGOAT Activity in HEK293 Cells after Incubation with Test Compound
details: HEK293 cells stably transfected with preproghrelin and human GOAT; octanoate-BSA 100 μM; acyl-ghrelin in medium by ELISA after 5 hours
measured-endpoint: IC50
Could you kindly put the unit after your number?

Past entries and their recorded results:
- molecule: "Cc1nc2nonc2c(N)c1Cc1ccc(OC(F)F)c(=O)[nH]1 [Example 120]"
  IC50: "4.3 nM"
- molecule: "Cc1cnn(C)c1-c1ccc(Cc2c(C)nc3nonc3c2N)nc1N [Example 68]"
  IC50: "0.11 nM"
- molecule: "Cc1nc2nonc2c(N)c1Cc1ccc(-c2cncs2)c(N)n1 [Example 67]"
  IC50: "0.05 nM"
- molecule: "Cc1nc2nonc2c(N)c1Cc1cc(C(F)(F)F)ccn1 [Example 26]"
  IC50: "8.8 nM"
- molecule: "Cc1nc2nonc2c(N)c1Cc1ccc(S(C)(=O)=O)cn1 [Example 88]"
  IC50: "3.3 nM"
- molecule: "Cc1nc2nonc2c(N)c1Cc1ncc(C#N)c(C(C)(F)F)n1 [Example 82]"
  IC50: "1 nM"
- molecule: "Cc1nc2nonc2c(N)c1Cc1ccc(OC(F)(F)F)cn1 [Example 17]"
  IC50: "0.22 nM"
- molecule: "Cc1nc2nonc2c(N)c1Cc1ccc(N2CCC(F)(F)C2)c(C#N)n1 [Example 150]"
  IC50: "2.3 nM"

Look up IC50 for this molecule: Cc1nc2nonc2c(N)c1Cc1ccc(-c2cnccn2)c(N)n1 [Example 69] 0.58 nM

Look up IC50 for this molecule: Cc1nc2nonc2c(N)c1Cc1ccc(Br)c(C#N)n1 [Example 71] 0.22 nM

Look up IC50 for this molecule: Cc1nc2nonc2c(N)c1Cc1ccc(C#N)c(N2CCOCC2)n1 [Example 136] 0.033 nM

Look up IC50 for this molecule: Cc1nc2nonc2c(N)c1Cc1ccc(C#N)c(OCC(F)F)n1 [Example 109] 0.093 nM

Look up IC50 for this molecule: Cc1nc2nonc2c(N)c1Cc1ccc(OCCF)c(C#N)n1 [Example 115] 1.2 nM

Look up IC50 for this molecule: Cc1nc2nonc2c(N)c1Cc1ccc(OC(F)F)c(N)n1 [Example 119] 0.091 nM

Look up IC50 for this molecule: Cc1nc2nonc2c(N)c1Cc1ccc(NCCF)c(C#N)n1 [Example 153] 0.56 nM

Look up IC50 for this molecule: Cc1nc2nonc2c(N)c1Cc1ccc(Oc2ccccc2)c(C#N)n1 [Example 118] 0.085 nM

Look up IC50 for this molecule: Cc1nc2nonc2c(N)c1Cc1cc(Cl)cc(C#N)n1 [Example 38] 2.6 nM

Look up IC50 for this molecule: Cc1nc2nonc2c(N)c1Cc1ccc(OCC(F)(F)F)c(C#N)n1 [Example 114] 3.9 nM

Look up IC50 for this molecule: Cc1nc2nonc2c(N)c1Cc1ccc(OC(F)F)cn1 [Example 14] 0.67 nM

Look up IC50 for this molecule: COc1nc(Cc2c(C)nc3nonc3c2N)ccc1Br [Example 97] 0.022 nM

Look up IC50 for this molecule: Cc1nc2nonc2c(N)c1Cc1ccc(C#N)c(OC(F)F)n1 [Example 73] 0.33 nM

Look up IC50 for this molecule: Cc1nc2nonc2c(N)c1Cc1cccc(-c2cncn2C)n1 [Example 59] 0.34 nM

Look up IC50 for this molecule: Cc1nc2nonc2c(N)c1Cc1nccc(C#N)n1 [Example 51] 20 nM

Look up IC50 for this molecule: Cc1nc2nonc2c(N)c1Cc1cccc(C(F)(F)F)n1 [Example 52] 0.48 nM

Look up IC50 for this molecule: Cc1nc2nonc2c(N)c1Cc1ccc(Cl)c(C#N)n1 [Example 47] 2.4 nM

Look up IC50 for this molecule: Cc1nc2nonc2c(N)c1Cc1ccc(C#N)cn1 [Example 4] 1.7 nM

Look up IC50 for this molecule: Cc1nc2nonc2c(N)c1Cc1ccc(C#N)c(=O)[nH]1 [Example 113] 31 nM

Look up IC50 for this molecule: Cc1nc2nonc2c(N)c1Cc1cc(C#N)c(C#N)cn1 [Example 76] 14 nM
